From: patent US20120277143A1

Ramos Assay IC50 by entry:
# ASSAY_SYSTEM: T1, human IL4 (human, UniProt P05112 25-153, biotinylated in the SPR and competition assays (sites not given))
# T1 sequence: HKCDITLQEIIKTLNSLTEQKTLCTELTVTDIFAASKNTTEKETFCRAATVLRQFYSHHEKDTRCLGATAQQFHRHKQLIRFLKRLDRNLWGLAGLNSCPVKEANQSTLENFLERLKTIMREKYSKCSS
# RUN_DESCRIPTION: cell-based or functional assay

Solved entries (count: 4):
[[record]]
binder = "C06_44C12_V2_C01_6G9_V1 (designed binder, bispecific IL4/IL13 ankyrin repeat protein with (GGGGS)4 linker; also called bispecific AR protein) DLGKKLLEAASAGQDDEVHILMANGADVNALDDSGYTPLHLAAEDGHLEIVEVLLKHGADVNAADRLGDTPLHLAAFVGHLEIVEVLLKAGADVNAVDLAGVTPLHVAAFYGHLEIVEVLLKAGADVNAQDKFGKTAFDISIDNGNEDLAEILQKLNGGGGSGGGGSGGGGSGGGGSDLDKKLLEAARAGQDDEVRILMANGADVNARDSYGSTPLHLAAREGHLEIVEVLLKYGADVNAADFIGDTPLHLAAYRGHLEIVEVLLKYGADVNASDITGETPLHLAAQIGHLEIVEVLLKHGADVNAQDKFGKTAFDISIDNGNEDLAEILQKLN"
recorded_value = "5.8 pM"

[[record]]
binder = "C01_6G9_V1_C06_53G6_V1 (designed binder, bispecific IL13/IL4 ankyrin repeat protein with (GGGGS)4 linker; also called bispecific AR protein) DLDKKLLEAARAGQDDEVRILMANGADVNARDSYGSTPLHLAAREGHLEIVEVLLKYGADVNAADFIGDTPLHLAAYRGHLEIVEVLLKYGADVNASDITGETPLHLAAQIGHLEIVEVLLKHGADVNAQDKFGKTAFDISIDNGNEDLAEILQKLNGGGGSGGGGSGGGGSGGGGSDLGKKLLEAARAGQDDEVRILMANGADVNATDDWGDTLLHLAATDGHLEIVEVLLKAGADVNANDAIGDTPLHLAALYGHLEIVEVLLKYGADVNATDLHGFTPLHLAAFWGHLEIVEVLLKHGADVNAQDKFGKTAFDISIDNGNEDLAEILQKLN"
recorded_value = "4.8 pM"

[[record]]
binder = "C06_28E5_V1_C01_6G9_V1 (designed binder, bispecific IL4/IL13 ankyrin repeat protein with (GGGGS)4 linker; also called bispecific AR protein) DLGKKLLEAARAGQDDEVRILMANGADVNAADDSGITPLHLAAEDGHLEIVEVLLKAGADVNAQDNLGDTPLHLAAWTGHLEIVEVLLKAGADVNAYDISGITPLHLAAFYGHLEIVEVLLKHGADVNAQDKFGKTAFDISIDNGNEDLAEILQKLNGGGGSGGGGSGGGGSGGGGSDLDKKLLEAARAGQDDEVRILMANGADVNARDSYGSTPLHLAAREGHLEIVEVLLKYGADVNAADFIGDTPLHLAAYRGHLEIVEVLLKYGADVNASDITGETPLHLAAQIGHLEIVEVLLKHGADVNAQDKFGKTAFDISIDNGNEDLAEILQKLN"
recorded_value = "5.4 pM"

[[record]]
binder = "C06_53G6_V1_C01_6G9_V1 (designed binder, bispecific IL4/IL13 ankyrin repeat protein with (GGGGS)4 linker; also called bispecific AR protein) DLGKKLLEAARAGQDDEVRILMANGADVNATDDWGDTLLHLAATDGHLEIVEVLLKAGADVNANDAIGDTPLHLAALYGHLEIVEVLLKYGADVNATDLHGFTPLHLAAFWGHLEIVEVLLKHGADVNAQDKFGKTAFDISIDNGNEDLAEILQKLNGGGGSGGGGSGGGGSGGGGSDLDKKLLEAARAGQDDEVRILMANGADVNARDSYGSTPLHLAAREGHLEIVEVLLKYGADVNAADFIGDTPLHLAAYRGHLEIVEVLLKYGADVNASDITGETPLHLAAQIGHLEIVEVLLKHGADVNAQDKFGKTAFDISIDNGNEDLAEILQKLN"
recorded_value = "8 pM"


For the binder shown here, C01_6G9_V1_C06_28E5_V1 (designed binder, bispecific IL13/IL4 ankyrin repeat protein with (GGGGS)4 linker; also called bispecific AR protein) DLDKKLLEAARAGQDDEVRILMANGADVNARDSYGSTPLHLAAREGHLEIVEVLLKYGADVNAADFIGDTPLHLAAYRGHLEIVEVLLKYGADVNASDITGETPLHLAAQIGHLEIVEVLLKHGADVNAQDKFGKTAFDISIDNGNEDLAEILQKLGGGGSGGGGSGGGGSGGGGSRSDLGKKLLEAARAGQDDEVRILMANGADVNAADDSGITPLHLAAEDGHLEIVEVLLKAGADVNAQDNLGDTPLHLAAWTGHLEIVEVLLKAGADVNAYDISGITPLHLAAFYGHLEIVEVLLKHGADVNAQDKFGKTAFDISIDNGNEDLAEILQKLN , give the reported Ramos Assay IC50. 6.9 pM
